# Study system: human orexin 2 receptor (Homo sapiens)
# Construct: stably expressing the full-length human orexin 2 receptor; expressed in transfected cells; host or cells: CHO-K1 (CHO-K1/hOX2), co-expressing aequorin
# Sequence (O43614 whole entry): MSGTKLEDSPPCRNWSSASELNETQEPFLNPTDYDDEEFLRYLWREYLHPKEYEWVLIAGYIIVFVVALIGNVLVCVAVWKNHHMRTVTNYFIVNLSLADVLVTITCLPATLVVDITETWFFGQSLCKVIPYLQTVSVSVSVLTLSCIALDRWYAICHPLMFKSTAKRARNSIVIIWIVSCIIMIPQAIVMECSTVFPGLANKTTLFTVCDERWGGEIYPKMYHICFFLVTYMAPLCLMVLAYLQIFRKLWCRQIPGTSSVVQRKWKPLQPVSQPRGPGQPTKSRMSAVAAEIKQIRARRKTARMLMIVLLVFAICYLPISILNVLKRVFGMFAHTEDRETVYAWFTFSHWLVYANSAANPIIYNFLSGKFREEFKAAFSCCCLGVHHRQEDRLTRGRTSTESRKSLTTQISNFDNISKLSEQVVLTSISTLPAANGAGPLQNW
# Protocol details: Assay B: In vitro testing of OX2R potency: OX2R IP1 (HTRF, CHO-K1/hOX2 cells, Orexin A as agonist)
# Assay type: cell-based
# Condition set: Orexin A 0.5 nM
# Excerpt: Activation of the orexin receptors expressed in cell lines results in an increase in intracellular IP3 concentration. IP1, a downstream metabolite of IP3, accumulates in cells following receptor activation and is stable in the presence of LiCl. Using Homogeneous Time-Resolved Fluorescence technology with Lumi4-Tb cryptate (commercially available from Cisbio Bioassay.) and a suitable fluorescence plate reader. […] Chem. Genomics 2009, 3, 22-32. […]
compounds and their reported Kb
Number only, in nM; omit the unit.

# count of solved cases: 5
- Compound: "CCN(C(=O)c1cc(F)cc(F)c1-n1nccn1)[C@@H](C)COc1ccc(C(F)(F)F)cn1"
  Result units: "nM"
  Test value: 92
- Compound: "CCN(C(=O)c1cccc(Cl)c1-n1nccn1)[C@@H](C)COc1ccc(OC(F)(F)F)cn1"
  Result units: "nM"
  Test value: 12
- Compound: "CC[C@@H](CNc1ccc(C(F)(F)F)cn1)N(C)C(=O)c1cc(Cl)ccc1-n1nccn1 [Ex 42 in WO2016/034882, reference compound]"
  Result units: "nM"
  Test value: 229
- Compound: "CCN(C(=O)c1cccc(F)c1-n1nccn1)[C@@H](C)COc1ccc(Br)cn1"
  Result units: "nM"
  Test value: 49
- Compound: "CCN(C(=O)c1c(F)cccc1-n1nccn1)[C@@H](C)COc1ccc(C(F)(F)F)cn1"
  Result units: "nM"
  Test value: 78

Asked: Entry CCN(C(=O)c1cccc(C)c1-c1nnc(C)o1)[C@@H](C)COc1ccc(C(F)(F)F)cn1 : reported Kb = ?
Given back: 35

Asked: Entry CCN(C(=O)c1ccc(OC)cc1-n1nccn1)[C@@H](C)COc1ncc(C(F)(F)F)cc1F : reported Kb = ?
Given back: 450

Asked: Entry CCN(C(=O)c1ccccc1-c1ccn(C)n1)[C@@H](C)COc1ccc(C(F)(F)F)cn1 : reported Kb = ?
Given back: 48

Asked: Entry CCN(C(=O)c1cccc(Cl)c1-n1nccn1)[C@@H](C)COc1ccc(C(F)(F)F)cn1 : reported Kb = ?
Given back: 13

Asked: Entry CCN(C(=O)c1c(-n2nccn2)ccc(C)c1F)[C@@H](C)COc1ccc(C(F)(F)F)cn1 : reported Kb = ?
Given back: 16

Asked: Entry CCN(C(=O)c1ccc(Cl)cc1-n1nccn1)[C@@H](C)COc1ncc(C(F)(F)F)cc1F : reported Kb = ?
Given back: 235

Asked: Entry CCN(C(=O)c1ccccc1-c1nnc(C)o1)[C@@H](C)COc1ccc(C(F)(F)F)cn1 : reported Kb = ?
Given back: 202

Asked: Entry CCN(C(=O)c1ccccc1-c1ncccn1)[C@@H](C)COc1ccc(C(F)(F)F)cn1 : reported Kb = ?
Given back: 27

Asked: Entry CCN(C(=O)c1ccc(F)cc1-c1ncccn1)[C@@H](C)COc1ccc(C(F)(F)F)cn1 : reported Kb = ?
Given back: 45

Asked: Entry CCN(C(=O)c1cccc(F)c1-c1nnc(C)o1)[C@@H](C)COc1ncc(C(F)(F)F)cc1F : reported Kb = ?
Given back: 1480

Asked: Entry CCN(C(=O)c1ccc(C#N)cc1-n1nccn1)[C@@H](C)COc1ncc(C(F)(F)F)cc1F : reported Kb = ?
Given back: 4340
